- tgt: MSI2-RRM1 (human, UniProt Q96DH6 21-111)
- Sequence (Q96DH6 21-111): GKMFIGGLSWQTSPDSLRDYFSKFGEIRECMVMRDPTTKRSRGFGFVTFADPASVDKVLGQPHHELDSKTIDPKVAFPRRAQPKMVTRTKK
- test.protocol: TR-FRET; 2 nM RNA; TR-FRET at room temperature (FP per earlier publication; binding buffers not given; protein stored in 50 mM Tris-HCl pH 8.0, 500 mM NaCl); NMR 20 mM MES pH 6.0, 150 mM NaCl, 5% D2O, 298 K
- particulars: protein: recombinant; tags: N-terminal His6 + TEV site (residues -3 to 20); label: 3' biotin
pKd: −log10 of the molar value.

binder	pKd
UAGGUAGUAGUUUUA (ssRNA) [NumbBiotin]	8.68
